- Tested on: TR146 cells
- assay-text: In vitro permeation, buccal model
- Format: in vitro ADME, human
- applied-conditions: from CS-loaded OFs, 45 min
Marks after values point to notes of the source that are not given here.
property: Permeation (%)

Input line: Please give measured Permeation (%) of the following entry: O=C1CC[C@@H](C(=O)O)N1 [Pyroglutamic acid]
Output line: 43.32 ± 1.12^a^,^b %

Input line: Please give measured Permeation (%) of the following entry: O=C(O)CCC(=O)O [Succinic acid]
Output line: 56.70 ± 1.23^b %

Input line: Please give measured Permeation (%) of the following entry: O=C(O)c1ccc(O)c(O)c1 [Protocatechuic acid]
Output line: 85.88 ± 2.01^b %

Input line: Please give measured Permeation (%) of the following entry: COc1cc(-c2oc3cc(O)cc(O)c3c(=O)c2O)ccc1O [Isorhamnetin]
Output line: 105.05 ± 2.24^a %

Input line: Please give measured Permeation (%) of the following entry: COc1cc(CC(=O)O)ccc1O [Homovanillic acid]
Output line: 105.41 ± 0.99^a %

Input line: Please give measured Permeation (%) of the following entry: O=C(O)C[C@H](C(=O)O)[C@@H](O)C(=O)O [Isocitric acid]
Output line: 0.50 ± 0.06^a %
